# Target system: L1196M mutant ALK kinase (Homo sapiens, UniProt Q9UM73, L1196M)
# Sequence (Q9UM73 19-1620 L1196M): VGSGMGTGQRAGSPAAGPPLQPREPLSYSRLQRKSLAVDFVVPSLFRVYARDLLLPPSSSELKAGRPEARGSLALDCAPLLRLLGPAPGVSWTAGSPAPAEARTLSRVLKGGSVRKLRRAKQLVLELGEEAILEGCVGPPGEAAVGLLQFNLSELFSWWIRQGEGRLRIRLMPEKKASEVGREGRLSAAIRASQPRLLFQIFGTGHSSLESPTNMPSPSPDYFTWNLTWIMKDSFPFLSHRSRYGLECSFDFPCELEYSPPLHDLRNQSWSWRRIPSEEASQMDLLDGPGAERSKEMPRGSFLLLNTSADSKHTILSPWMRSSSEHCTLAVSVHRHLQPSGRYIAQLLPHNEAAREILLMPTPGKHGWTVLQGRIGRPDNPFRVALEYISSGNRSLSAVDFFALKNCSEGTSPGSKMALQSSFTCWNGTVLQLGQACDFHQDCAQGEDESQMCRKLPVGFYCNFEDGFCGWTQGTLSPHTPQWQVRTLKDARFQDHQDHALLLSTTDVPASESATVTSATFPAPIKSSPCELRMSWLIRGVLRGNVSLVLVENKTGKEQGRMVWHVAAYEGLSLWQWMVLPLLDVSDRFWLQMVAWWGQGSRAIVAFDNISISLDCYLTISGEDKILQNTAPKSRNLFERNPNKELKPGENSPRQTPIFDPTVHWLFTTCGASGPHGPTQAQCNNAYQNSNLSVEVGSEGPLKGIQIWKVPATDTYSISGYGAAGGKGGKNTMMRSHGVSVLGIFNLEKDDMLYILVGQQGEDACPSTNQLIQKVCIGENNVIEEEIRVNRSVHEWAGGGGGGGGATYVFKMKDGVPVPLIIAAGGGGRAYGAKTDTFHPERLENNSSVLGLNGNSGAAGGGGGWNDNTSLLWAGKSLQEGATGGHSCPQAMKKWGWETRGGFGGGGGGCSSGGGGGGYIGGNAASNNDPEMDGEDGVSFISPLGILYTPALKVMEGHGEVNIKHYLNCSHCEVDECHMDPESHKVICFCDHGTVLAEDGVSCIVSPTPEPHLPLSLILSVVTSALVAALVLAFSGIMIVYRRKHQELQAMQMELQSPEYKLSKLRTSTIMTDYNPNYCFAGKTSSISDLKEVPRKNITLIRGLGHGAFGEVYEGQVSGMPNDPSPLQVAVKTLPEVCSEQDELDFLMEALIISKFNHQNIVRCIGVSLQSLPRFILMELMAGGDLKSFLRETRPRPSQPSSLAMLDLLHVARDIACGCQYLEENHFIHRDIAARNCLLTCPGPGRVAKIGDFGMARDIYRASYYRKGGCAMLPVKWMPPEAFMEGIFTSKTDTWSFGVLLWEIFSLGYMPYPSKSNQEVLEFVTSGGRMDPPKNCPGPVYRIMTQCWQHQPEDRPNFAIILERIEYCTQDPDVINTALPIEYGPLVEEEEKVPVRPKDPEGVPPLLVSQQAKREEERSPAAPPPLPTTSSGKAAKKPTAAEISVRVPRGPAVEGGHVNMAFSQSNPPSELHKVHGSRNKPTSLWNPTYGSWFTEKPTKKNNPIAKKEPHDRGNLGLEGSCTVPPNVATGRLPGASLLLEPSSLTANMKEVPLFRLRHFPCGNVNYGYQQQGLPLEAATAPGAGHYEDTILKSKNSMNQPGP
# Run description: HTRF KinEASE-TK assay, inhibitory activity on L1196M mutant ALK kinase
# Condition label: L1196M mutant ALK 1 ng/μl, substrate 1 μM, ATP 5 μM, 30° C. 35 minutes, read-out: Inhibition on ALK kinases (L1196M mutant), IC50
Measure: IC50 (nM)

I = Cc1cc(Nc2ncc(Cl)c(Nc3cn(C)nc3S(=O)(=O)C(C)C)n2)c(OC2CC2)cc1C1CCN(C)C(C)C1 (stereo not drawn)
II = CC(C)CS(=O)(=O)c1nn(C)cc1Nc1nc(Nc2ccc(C3CCN(C)CC3)cc2OC2CC2)ncc1Cl
III = Cc1cc(Nc2ncc(Cl)c(Nc3cn(C)nc3S(=O)(=O)C(C)C)n2)c(OC2CC2)cc1C1=C(Cl)CN(C)CC1
Data request: Sort entries by IC50 from minimum to maximum value. Answer by naming the labels in the order asked.
Data returned: I, II, III

---

cytochrome P450 2C19 (Homo sapiens, UniProt P33261) IC50 data
Sequence (P33261 whole entry): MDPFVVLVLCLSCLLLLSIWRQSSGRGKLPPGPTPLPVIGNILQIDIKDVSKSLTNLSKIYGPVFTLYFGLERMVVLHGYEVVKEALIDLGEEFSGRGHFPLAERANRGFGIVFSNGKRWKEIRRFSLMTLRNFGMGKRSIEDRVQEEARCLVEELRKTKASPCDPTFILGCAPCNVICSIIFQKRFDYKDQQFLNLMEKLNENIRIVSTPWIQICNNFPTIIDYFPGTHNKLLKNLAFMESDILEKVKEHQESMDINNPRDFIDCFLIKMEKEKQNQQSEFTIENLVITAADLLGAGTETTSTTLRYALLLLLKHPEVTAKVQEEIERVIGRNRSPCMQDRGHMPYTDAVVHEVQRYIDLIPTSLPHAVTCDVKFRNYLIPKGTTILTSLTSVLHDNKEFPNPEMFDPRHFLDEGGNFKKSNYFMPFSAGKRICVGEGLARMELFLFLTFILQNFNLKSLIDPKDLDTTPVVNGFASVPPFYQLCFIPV

- Cc1cc(Nc2ncc(Cl)c(Nc3cn(C)nc3S(=O)(=O)C(C)C)n2)c(OC2CC2)cc1C1CCN(S(C)(=O)=O)CC1 [Final product 167]: > 10 µM

Data request: Report IC50 from cytochrome P450 2C19 (Homo sapiens, UniProt P33261) testing of CC(C)S(=O)(=O)c1nn(C)cc1Nc1nc(Nc2cc(Cl)c(C3CCN(C)CC3)cc2OC2CC2)ncc1Cl [Final product 47]
Data returned: > 10 µM

Data request: Report IC50 from cytochrome P450 2C19 (Homo sapiens, UniProt P33261) testing of Cc1cc(Nc2ncc(Cl)c(Nc3cn(C)nc3S(=O)(=O)CC(C)C)n2)c(OC2CC2)cc1C1CCN(C)CC1 [Final product 57]
Data returned: > 10 µM

Data request: Report IC50 from cytochrome P450 2C19 (Homo sapiens, UniProt P33261) testing of Cc1cc(Nc2ncc(Cl)c(Nc3cn(C)nc3S(=O)(=O)C(C)C)n2)c(OC2CC2)cc1C1CC(C)N(C)C(C)C1 (stereo not shown) [Final product 95]
Data returned: > 10 µM

---

Wild Type ALK kinase (Homo sapiens) pIC50 data
Sequence (Q9UM73 19-1620): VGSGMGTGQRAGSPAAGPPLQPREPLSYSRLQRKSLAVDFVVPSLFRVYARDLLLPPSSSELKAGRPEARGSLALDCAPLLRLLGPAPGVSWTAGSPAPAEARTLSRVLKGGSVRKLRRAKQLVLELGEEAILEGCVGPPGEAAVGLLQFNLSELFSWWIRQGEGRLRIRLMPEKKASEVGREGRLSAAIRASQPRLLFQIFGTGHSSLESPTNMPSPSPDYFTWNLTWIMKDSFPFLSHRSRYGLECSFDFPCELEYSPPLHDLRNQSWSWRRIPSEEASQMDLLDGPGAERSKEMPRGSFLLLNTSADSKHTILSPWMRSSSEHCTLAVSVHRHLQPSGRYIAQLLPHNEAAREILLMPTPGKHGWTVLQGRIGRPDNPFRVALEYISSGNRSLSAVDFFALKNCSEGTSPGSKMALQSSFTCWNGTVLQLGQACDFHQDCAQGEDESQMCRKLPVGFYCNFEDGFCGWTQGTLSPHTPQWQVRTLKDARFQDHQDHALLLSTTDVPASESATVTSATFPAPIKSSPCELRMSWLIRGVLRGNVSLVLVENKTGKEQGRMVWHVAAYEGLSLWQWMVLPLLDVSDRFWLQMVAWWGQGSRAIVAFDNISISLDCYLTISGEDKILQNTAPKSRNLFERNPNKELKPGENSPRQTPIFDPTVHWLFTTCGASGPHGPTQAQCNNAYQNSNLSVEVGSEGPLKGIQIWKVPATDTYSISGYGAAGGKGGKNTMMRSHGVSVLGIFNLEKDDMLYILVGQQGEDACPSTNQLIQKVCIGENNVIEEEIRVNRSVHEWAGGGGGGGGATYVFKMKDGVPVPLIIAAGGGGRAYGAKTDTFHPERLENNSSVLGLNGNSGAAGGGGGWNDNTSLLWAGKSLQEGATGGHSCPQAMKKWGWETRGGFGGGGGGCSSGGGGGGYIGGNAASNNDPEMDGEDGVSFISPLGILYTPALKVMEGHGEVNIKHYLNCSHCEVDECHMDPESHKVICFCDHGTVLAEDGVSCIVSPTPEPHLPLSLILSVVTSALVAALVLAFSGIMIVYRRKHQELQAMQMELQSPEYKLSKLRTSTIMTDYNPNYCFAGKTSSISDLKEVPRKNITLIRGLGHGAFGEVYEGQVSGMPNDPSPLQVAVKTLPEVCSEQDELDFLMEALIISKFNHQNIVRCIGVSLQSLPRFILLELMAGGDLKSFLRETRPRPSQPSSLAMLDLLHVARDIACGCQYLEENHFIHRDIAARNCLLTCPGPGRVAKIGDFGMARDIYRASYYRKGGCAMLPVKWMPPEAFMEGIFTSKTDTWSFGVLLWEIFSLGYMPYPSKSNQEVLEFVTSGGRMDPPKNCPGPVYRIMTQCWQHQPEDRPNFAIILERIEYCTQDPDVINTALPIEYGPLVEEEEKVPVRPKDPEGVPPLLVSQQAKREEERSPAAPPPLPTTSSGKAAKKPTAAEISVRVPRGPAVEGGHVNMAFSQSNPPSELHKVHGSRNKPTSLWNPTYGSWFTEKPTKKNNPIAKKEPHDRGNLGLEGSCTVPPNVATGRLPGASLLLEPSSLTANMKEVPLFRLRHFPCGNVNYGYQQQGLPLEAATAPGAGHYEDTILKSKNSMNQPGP
pIC50: −log10 of the molar value.
Measure: pIC50

Some solved entries appear below for comparison.
* Cc1cc(Nc2ncc(Cl)c(Nc3cn(C)nc3S(=O)(=O)C(C)C)n2)c(C(F)(F)F)cc1C1CCNCC1 [Final product 11] | 7.66
* Cc1cc(Nc2ncc(Cl)c(Nc3cn(C)nc3S(=O)(=O)C(C)C)n2)c(OC(C)C)cc1C1CCN(C(C)(C)CO)CC1 [Final product 152] | 8.40
* CC(C)S(=O)(=O)c1nn(C2CC2)cc1Nc1nc(Nc2ccc(C3CCNCC3)cc2OC2CC2)ncc1Cl [Final product 16] | 8.40
* Cc1cc(Nc2nc(Nc3cc(C)c(C4CCN(S(C)(=O)=O)CC4)cc3C)ncc2Cl)n[nH]1 [Final product 217, reference compound] | 7.70
* Cc1cc(Nc2ncc(Cl)c(Nc3cn(C)nc3S(=O)(=O)C(C)C)n2)c(OC(CF)CF)cc1C1CCNCC1 [Final product 8] | 8.05
* Cc1cc(Nc2ncc(Cl)c(Nc3cn(C)nc3S(=O)(=O)C(C)C)n2)c(OC2CC2)cc1C1CCN(C(=O)C2CC2)CC1 [Final product 162] | 7.72
* Cc1cc(Nc2ncc(Cl)c(Nc3cn(C)nc3S(=O)(=O)CC(C)C)n2)c(OC2CC2)cc1C1CN(C)C1 [Final product 55] | 8.40
* CC(C)S(=O)(=O)c1nn(C)cc1Nc1nc(Nc2cc(C#N)c(C3CCN(C)CC3)cc2OC2CC2)ncc1Cl [Final product 49] | 8.10

A = Cc1cc(Nc2nc(Nc3cc(C)c(C4CCN(C)CC4)cc3OC(C)C)ncc2Cl)n[nH]1 [Final product 212, reference compound]
B = CC(C)S(=O)(=O)c1nn(C)cc1Nc1nc(Nc2cc(F)c(C3CCN(C)C3)cc2OC2CC2)ncc1Cl (centres unmarked) [Final product 45]
C = Cc1cc(Nc2nc(Nc3cc(C)c(C4CCN(CCO)CC4)cc3C)ncc2Cl)n[nH]1 [Final product 215, reference compound]
D = CC(C)S(=O)(=O)c1nn(C2CC2)cc1Nc1nc(Nc2cc(F)c(C3CCNCC3)cc2OC2CC2)ncc1Cl [Final product 21]
E = Cc1cc(Nc2ncc(Cl)c(Nc3cn(C)nc3S(=O)(=O)C(C)C)n2)c(OC2CC2)cc1C1CCN(C(=O)C(C)(C)C)CC1 [Final product 164]
Data request: Order the records by pIC50, with each subsequent value no larger than the one before. Answer by naming the labels in the order asked.
Data returned: D, B, A, C, E
